- target: human FAAH (Homo sapiens)
- Sequence (O00519 1-579): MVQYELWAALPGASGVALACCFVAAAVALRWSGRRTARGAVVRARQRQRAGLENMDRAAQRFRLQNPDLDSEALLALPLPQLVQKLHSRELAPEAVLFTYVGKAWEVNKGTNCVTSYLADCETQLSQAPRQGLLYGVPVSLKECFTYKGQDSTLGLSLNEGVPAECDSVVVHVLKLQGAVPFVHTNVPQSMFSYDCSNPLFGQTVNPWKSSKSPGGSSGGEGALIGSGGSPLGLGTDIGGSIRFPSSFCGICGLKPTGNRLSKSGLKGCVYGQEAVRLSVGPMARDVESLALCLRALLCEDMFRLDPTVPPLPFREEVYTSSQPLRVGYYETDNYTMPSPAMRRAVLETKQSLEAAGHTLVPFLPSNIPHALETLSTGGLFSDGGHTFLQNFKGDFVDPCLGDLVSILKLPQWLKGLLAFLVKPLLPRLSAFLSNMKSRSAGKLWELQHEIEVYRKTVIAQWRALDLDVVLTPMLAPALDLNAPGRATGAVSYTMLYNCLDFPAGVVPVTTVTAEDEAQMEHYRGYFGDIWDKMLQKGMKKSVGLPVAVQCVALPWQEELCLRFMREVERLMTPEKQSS
pKi: −log10 of the molar value.
reported-property: pKi

q: May I ask what pKi has been recorded for Cn1nccc1-c1ccc(OC2=NO[C@]3(CCc4cc(OC(F)(F)F)ccc43)C2)cn1 [III-71a] ?
a: ≥ 7.00

q: Same again, this time with CC(C)(C)OC(=O)N1CCC2(CC1)CC(Br)=NO2 [III-9]
a: ≥ 7.00

q: Input CS(=O)(=O)c1ccc(OC2=NO[C@]3(CCc4cc(OC(F)(F)F)ccc43)C2)cn1 [III-68a]
a: ≥ 7.00

q: Another compound: CC(C)(C)OC(=O)N1CC[C@]2(CC(Br)=NO2)C1 [III-11b]
a: 6.00 to 7.00

q: Also FC(F)(F)c1ccc(CN2CCC3(CC2)CC(Br)=NO3)cc1 [III-26] , if possible.
a: ≥ 7.00

q: Also check CC(C)(C)OC(=O)N1C[C@@H]2C(Br)=NO[C@@H]2C1 [III-43a]
a: 6.00 to 7.00

q: Next record, please: CC(C)(C)OC(=O)N1C2CCC1CC1(CC(Br)=NO1)C2 (stereo not shown) [III-13a]
a: ≤ 6.00
